Biological target: human GR (Homo sapiens, UniProt P04150)
Sequence (P04150 1-777): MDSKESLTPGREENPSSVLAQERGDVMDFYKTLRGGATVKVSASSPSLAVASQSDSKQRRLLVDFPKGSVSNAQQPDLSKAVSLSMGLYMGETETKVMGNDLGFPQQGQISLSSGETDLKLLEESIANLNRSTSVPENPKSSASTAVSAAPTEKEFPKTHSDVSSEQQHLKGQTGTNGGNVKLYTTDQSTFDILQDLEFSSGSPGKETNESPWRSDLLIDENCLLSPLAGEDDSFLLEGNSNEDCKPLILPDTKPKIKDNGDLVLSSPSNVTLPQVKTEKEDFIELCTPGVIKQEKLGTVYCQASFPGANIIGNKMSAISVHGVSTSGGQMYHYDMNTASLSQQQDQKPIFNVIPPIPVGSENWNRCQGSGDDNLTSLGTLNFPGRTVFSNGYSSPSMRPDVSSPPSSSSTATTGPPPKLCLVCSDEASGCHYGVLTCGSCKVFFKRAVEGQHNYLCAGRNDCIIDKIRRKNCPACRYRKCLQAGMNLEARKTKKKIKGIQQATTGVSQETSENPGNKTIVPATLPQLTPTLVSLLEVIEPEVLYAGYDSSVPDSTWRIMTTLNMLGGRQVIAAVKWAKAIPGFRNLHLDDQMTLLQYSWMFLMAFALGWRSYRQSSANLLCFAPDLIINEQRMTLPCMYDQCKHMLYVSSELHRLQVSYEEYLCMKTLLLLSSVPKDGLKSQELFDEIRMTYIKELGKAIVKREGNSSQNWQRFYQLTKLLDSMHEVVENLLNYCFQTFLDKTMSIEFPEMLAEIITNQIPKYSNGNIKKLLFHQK
Assay: Transrepression Assay (GITAR), TNFα-β-lactamase reporter in U937 cells
Assay type: cell-based
Set-up: U937 cells contain an endogenous glucocorticoid receptor (GR); endogenous in cells; host or cells: U937 cells stably transfected with the TNF-alpha promoter/beta-lactamase reporter
Details: GITAR Emax minus GRAMMER Emax
// thresholds for GITAR > GRAMM % SEP classes: low end (below 10%), middle (10% to below 30%), high end (30% or more)

molecule: C[C@]12Cc3cnn(-c4ccc(F)cc4)c3C=C1CC[C@@H]2CN(CCO)S(=O)(=O)c1ccc(F)c(Cl)c1
test system: human GR (Homo sapiens, UniProt P04150)
class name: high end
--
molecule: C[C@@H](CN(C[C@H]1CCC2=Cc3c(cnn3-c3ccc(F)cc3)C[C@@]21C)S(=O)(=O)CC(F)(F)F)OS(=O)(=O)CC(F)(F)F
test system: human GR (Homo sapiens, UniProt P04150)
class name: middle
--
molecule: C[C@]12Cc3cnn(-c4ccc(F)cc4)c3C=C1CC[C@@H]2CN(CCc1ccccc1F)S(=O)(=O)Cc1ccc(Cl)c(Cl)c1
test system: human GR (Homo sapiens, UniProt P04150)
class name: high end

Task: Bin this entry: CC(CN(C[C@H]1CCC2=Cc3c(cnn3-c3ccc(F)cc3)C[C@@]21C)S(=O)(=O)CC(F)(F)F)c1cccnc1 (stereo partly drawn)
Result: low end

Task: Bin this entry: C[C@H](O)CN(C[C@H]1CCC2=Cc3c(cnn3-c3ccc(F)cc3)C[C@@]21C)S(=O)(=O)c1ccc(F)c(Cl)c1
Result: high end

* * *

Target: UniProt P04150
Test: Transrepression Assay (GITAR), TNFα-β-lactamase reporter in U937 cells
Format: cell-based
Set-up: U937 cells contain an endogenous glucocorticoid receptor (GR); endogenous in cells; host or cells: U937 cells stably transfected with the TNF-alpha promoter/beta-lactamase reporter
Details: GITAR Emax minus GRAMMER Emax
Parameter GITAR > GRAMM % SEP: see the listing below.
// units = %; emit number, no label

Illustrative cases are given below, each with its answer.
chem smiles: C[C@]12Cc3cnn(-c4ccc(F)cc4)c3C=C1CC[C@@H]2CN(Cc1cccnn1)S(=O)(=O)CC(F)(F)F
observable: GITAR > GRAMM % SEP
assay result: 50.8
//
chem smiles: C[C@]12Cc3cnn(-c4ccc(F)cc4)c3C=C1CC[C@@H]2CN(CCO)S(=O)(=O)c1cc(F)cc(F)c1
observable: GITAR > GRAMM % SEP
assay result: 25.5
//
chem smiles: C[C@]12Cc3cnn(-c4ccc(F)cc4)c3C=C1CC[C@@H]2CN(CC#N)S(=O)(=O)c1cc(F)c(F)cc1F
observable: GITAR > GRAMM % SEP
assay result: 15.7
//
chem smiles: CCCCCc1ccc(S(=O)(=O)N(CC2CC2)C[C@H]2CCC3=Cc4c(cnn4-c4ccc(F)cc4)C[C@@]32C)cc1
observable: GITAR > GRAMM % SEP
assay result: 15.4
//
chem smiles: C[C@]12Cc3cnn(-c4ccc(F)cc4)c3C=C1CC[C@@H]2CN(CCO)S(=O)(=O)c1ccc(F)c(F)c1
observable: GITAR > GRAMM % SEP
assay result: 39.6
//
chem smiles: CCCS(=O)(=O)N(CCc1ccccn1)C[C@H]1CCC2=Cc3c(cnn3-c3ccc(F)cc3)C[C@@]21C
observable: GITAR > GRAMM % SEP
assay result: 7.2

Next molecule, GITAR > GRAMM % SEP to be filled in.
Task: What GITAR > GRAMM % SEP value was documented for this molecule, C[C@@H](O)CN(C[C@H]1CCC2=Cc3c(cnn3-c3ccc(F)cc3)C[C@@]21C)S(=O)(=O)Cc1ccccc1C(=O)O ?
Result: 8.2
